# assay target: TYK2 (Homo sapiens (Human), UniProt P29597)
# Sequence (P29597 897-1176): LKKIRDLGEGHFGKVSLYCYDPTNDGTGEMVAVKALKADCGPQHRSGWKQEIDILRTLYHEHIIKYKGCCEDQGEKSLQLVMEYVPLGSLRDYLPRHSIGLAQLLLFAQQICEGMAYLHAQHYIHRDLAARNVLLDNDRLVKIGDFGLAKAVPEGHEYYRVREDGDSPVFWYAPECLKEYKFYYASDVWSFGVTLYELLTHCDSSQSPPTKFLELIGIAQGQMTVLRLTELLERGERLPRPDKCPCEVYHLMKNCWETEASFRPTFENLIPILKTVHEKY
# assay explanation: JAK Caliper enzyme assay at 1 mM ATP (TYK2)
# assay setup: recombinant human kinase domain, Caliper mobility shift
metric: IC50 (nM)
One number for each entry, in nM.

Provide the reported IC50 of each entry below, same order.
1. CO[C@H]1C[C@](CC#N)(n2cc(-c3nc(-c4cn(C)nc4CO)cn4nccc34)cn2)C1
2. C[C@H]1N(CC(F)(F)F)C[C@]1(CC#N)n1cc(-c2nc(-c3cnn(C)c3)cn3nccc23)cn1
3. CO[C@H]1C[C@@](CC#N)(n2cc(-c3nc(-c4cc(CO)[nH]n4)cn4nccc34)cn2)C1
4. Cc1cnn2cc(-c3cnn(C)c3)nc(-c3cnn([C@]4(CC#N)C[C@@H](C#N)C4)c3)c12
5. CO[C@H]1C[C@](CC#N)(n2cc(-c3nc(-c4cc(N)n(C)n4)cn4nccc34)cn2)C1

// result
38
35
24
23
25
